Target: mu opioid receptor (MOR) (UniProt P35372)
Sequence (P35372 whole entry): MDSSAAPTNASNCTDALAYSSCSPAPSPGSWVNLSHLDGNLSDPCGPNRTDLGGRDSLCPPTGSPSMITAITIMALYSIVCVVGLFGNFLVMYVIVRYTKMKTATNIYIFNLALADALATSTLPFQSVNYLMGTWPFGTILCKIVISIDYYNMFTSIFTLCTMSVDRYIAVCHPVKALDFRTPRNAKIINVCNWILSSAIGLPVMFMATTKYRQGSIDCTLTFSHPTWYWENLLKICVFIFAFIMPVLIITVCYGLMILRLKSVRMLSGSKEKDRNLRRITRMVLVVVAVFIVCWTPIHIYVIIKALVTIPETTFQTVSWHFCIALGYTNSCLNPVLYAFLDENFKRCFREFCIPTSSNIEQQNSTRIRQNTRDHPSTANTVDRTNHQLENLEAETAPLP
Assay: competition
Non-standard residues stand in square brackets, D forms with d. No end group written: not given here. *: point of attachment. Dmt = Cc1cc(O)cc(C)c1C[C@H](N)C(=O)O; NMeF = CN[C@@H](Cc1ccccc1)C(=O)O; hSer = N[C@@H](CCO)C(=O)O; Orn = NCCC[C@H](N)C(=O)O; Dab = NCC[C@H](N)C(=O)O; Dap = NC[C@H](N)C(=O)O; NHBn = c1ccc(CN*)cc1
TEST_READOUT: pKi
Please treat pKi as minus the base-10 logarithm of the molar concentration.

>  <BINDER>
Y[dA]G[NMeF][Orn]PLW (not fully specified (C-terminus)) [AKG173]

>  <pKi>
8.30

$$$$
>  <BINDER>
Y[dA]G[NMeF]SPLW-NHBn [AKG126]

>  <pKi>
8.70

$$$$
>  <BINDER>
Y[dA]GF[hSer]PLW-NHBn [AKG039]

>  <pKi>
6.94

$$$$
>  <BINDER>
Y[dA]GF[dS]PLW-NHBn [AKG101]

>  <pKi>
6.71

$$$$
>  <BINDER>
[Dmt][dA]G[NMeF]SPLW-NHBn [AKG132]

>  <pKi>
9.40

$$$$
>  <BINDER>
Y[dA]GFSPLW (not fully specified (C-terminus)) [AKG038]

>  <pKi>
6.90

$$$$

Data request: Name the recorded pKi for Y[dA]G[NMeF]KPLW (not fully specified (C-terminus)) [AKG174] .
Data returned: 8.10

Data request: # get_value(readout='pKi', item= Y[dA]G[NMeF][Dap]PLW-NHBn [AKG171] )
Data returned: 8.52

Data request: Consider the binder Y[dA]G[NMeF][Dab]PLW-NHBn [AKG172] and give its measured pKi.
Data returned: 8.10
